Kindly state S.I. (selective index, CC50 /EC50) for each of the entries shown.
Tested on: HIV
Experiment: microbe, parasite or virus in culture
Assay type: cell-based
Details: CC50 = 50% growth inhibition of non-infected cells; 7200 min
Numbers only.

COc1ccccc1N1CCN(c2c(F)c(N)c3c(=O)c(C(=O)O)cn(C(C)C)c3c2OC(F)F)CC1 [Example 29]; 22
COc1ccccc1N1CCN(c2c(F)cc3c(=O)c(C(=O)O)cn(C)c3c2OC(F)F)CC1 [Example 23]; 309
COc1ccc(N2CCN(c3c(F)cc4c(=O)c(C(=O)O)cn(C5CC5)c4c3OC(F)F)CC2)cc1 [Example 8]; 500
O=C(O)c1cn(C2CC2)c2c(OC(F)F)c(N3CCN(c4ccccc4)CC3)c(F)cc2c1=O [Example 2]; 100
O=C(O)c1cn(C2CC2)c2c(OC(F)F)c(N3CCN(c4ncc(Cl)cn4)CC3)c(F)cc2c1=O [Example 19]; 57
CCn1cc(C(=O)O)c(=O)c2cc(F)c(N3CCN(c4ncccn4)CC3)nc21 [Example 92]; 31
COc1cccc(N2CCN(c3c(F)cc4c(=O)c(C(=O)O)cn(C5CC5)c4c3OC(F)F)CC2)c1 [Example 7]; 113
COc1ccccc1N1CCN(c2c(F)cc3c(=O)c(C(=O)O)cn(C4CC4)c3c2OC(F)F)CC1 [Example 1]; 400
O=C(O)c1cn(C2CC2)c2c(OC(F)F)c(N3CCN(c4ncccc4[N+](=O)[O-])CC3)c(F)cc2c1=O [Example 17]; 250
CCn1cc(C(=O)O)c(=O)c2cc(F)c(N3CCN(c4ccccc4OC)CC3)c(OC(F)F)c21 [Example 63]; 1000

Batch: S.I. (selective index, CC50 /EC50) for all items listed.
1. COc1ccccc1N1CCN(c2c(F)cc3c(=O)c(C(=O)O)cn(CCOC(C)=O)c3c2OC(F)F)CC1 [Example 46]
2. O=C(O)c1cn(C2CC2)c2c(OC(F)F)c(N3CCN(c4nc5ccccc5o4)CC3)c(F)cc2c1=O [Example 21]

A)
1: 155; 2: 16

Batch: S.I. (selective index, CC50 /EC50) for all items listed.
1. COc1ccccc1N1CCN(c2c(F)cc3c(=O)c(C(=O)O)cn(CCF)c3c2OC)CC1 [Example 70]
2. CC1Sc2c(C(=O)O)c(=O)c3cc(F)c(N4CCN(c5ncccn5)CC4)cc3n21 (centres unmarked) [Example 100]

A)
1: 20; 2: 9

Batch: S.I. (selective index, CC50 /EC50) for all items listed.
1. Cn1cc(C(=O)O)c(=O)c2cc(F)c(N3CCN(c4ncccn4)CC3)c(OC(F)F)c21 [Example 24]
2. O=C(O)c1cn(C2CC2)c2c(OC(F)F)c(N3CCN(c4ccc(F)cc4)CC3)c(F)cc2c1=O [Example 6]
3. COc1ccccc1N1CCN(c2c(F)cc3c(=O)c(C(=O)O)cn(CCF)c3c2OC(F)F)CC1 [Example 38]
4. O=C(O)c1cn(C2CC2)c2c(OC(F)F)c(N3CCN(c4ncccn4)CC3)c(F)cc2c1=O [Example 18]
5. CC1COc2c(N3CCN(c4ccccn4)CC3)c(F)cc3c(=O)c(C(=O)O)cn1c23 (centres unmarked) [Example 85]

A)
[257, 34, 79, 121, 17]

Q) Look up S.I. (selective index, CC50 /EC50): CCn1cc(C(=O)O)c(=O)c2cc(F)c(N3CCN(c4ncccn4)C(C)C3)c(OC(F)F)c21 (centres unmarked) [Example 94]
A) 21

----------
Kindly state S.I. (selective index, CC50 /EC50) for each of the entries shown.
Test system: HIV
Assay: microbe, parasite or virus in culture
Format: cell-based
Details: CC50 = 50% growth inhibition of non-infected cells; 7200 min

Known S.I. (selective index, CC50 /EC50) results, listed for orientation:
CCn1cc(C(=O)O)c(=O)c2cc(F)c(N3CCN(c4ncccn4)CC3)c(OC(F)F)c21; > 500
CCn1cc(C(=O)O)c(=O)c2ccc(N3CCN(c4ncccn4)CC3)c(OC(F)F)c21; > 25
CCn1cc(C(=O)O)c(=O)c2cc(F)c(N3CCN(c4cnccn4)CC3)c(OC(F)F)c21; > 109
CC(C)(C)n1cc(C(=O)O)c(=O)c2cc(F)c(N3CCN(c4ncccn4)CC3)cc21; > 62
CNn1cc(C(=O)O)c(=O)c2cc(F)c(N3CCN(c4ncccn4)CC3)c(OC(F)F)c21; > 83

Attention now turns to another entry.
Q) Look up S.I. (selective index, CC50 /EC50): O=C(O)c1cn2c3c(c(N4CCN(c5ncccn5)CC4)c(F)cc3c1=O)OCC2CF (stereo not drawn)
A) > 512
